# Tested on: M14 melanoma
# assay procedure: NCI-60 one-dose screen, 48 h (100 = growth as untreated, 0 = no growth, -100 = all killed)
# experimental conditions: 10 µM unless noted
Compounds without any hit were thinned out: in the full panel of roughly 83,000, 20% have a hit.
Measured growth of individual entries
quantity measured: growth (%)

* COc1cc(CNC(=O)/C=C/C=C/c2ccc3c(c2)OCO3)ccc1OCc1cn(-c2ccc(C)c(C)c2)nn1 | 61.4
* Cn1cc(-c2nonc2-c2c[nH]c3ccc(Br)cc23)c2cc(Br)ccc21 | 42.7
* COc1cc(-c2nc(SCCC(C)C)nc(Nc3ccccc3Cl)c2C#N)cc(OC)c1OC | 96.6
* Cn1c(O)c(C=NCCN=Cc2c(O)n(C)c(=O)n(C)c2=O)c(=O)n(C)c1=O | 102
* O=c1c2cc(-c3ccccc3)sc2nc2sc(-c3ccccc3)nn12 | 97.9
* CCN1CC(=O)N(/N=C2\C(=O)Nc3ccccc32)C1=S | 86
* O=C(Nn1c2c(sc1=Nc1ccccc1)C(=O)c1ccccc1C2=O)c1cc2ccc1CCc1ccc(cc1)CC2 | 4.14
* O=C(Nc1ccc(NC(=O)c2cc(=O)[nH]c3ccccc23)cc1)Nc1cccc(C(F)(F)F)c1 | 69.9
* C#Cc1cccc(Nc2ncnc3ccc(-c4cnc(N)nc4)cc23)c1 | 36.8
